Test system: a variety of test species
protocol: Post-emergence herbicidal activity (glasshouse, sprayed 8 days after sowing, evaluated after 13 days)
Assay type: in vivo
applied.conditions: Zea mays, 1000 g/ha, scale 0-5
result.type: Post-emergence herbicidal damage score, ZEAMX (Zea mays)
// keep it numeric: no unit symbol after the value

// solved cases for Post-emergence herbicidal damage score, ZEAMX (Zea mays) follow
> print(dat)
                                   compound              target.entity  endpoint.result
1  CC1=C(Cl)C(O)N(c2cc3n(n2)CCSC3(C)C)C1=O (centres unmarked)  a variety of test species                0
2  CCC1CCCn2nc(N3C(=O)C(C)=C(Cl)C3O)cc21 (mixture of isomers)  a variety of test species                0

Entry COC1=C(Cl)C(OC(C)=O)N(c2cc(C(C)(C)C)n(C)n2)C1=O (centres unmarked) has what Post-emergence herbicidal damage score, ZEAMX (Zea mays)? 3

Same lookup for Cn1nc(N2C(=O)C(CCl)=C(Cl)C2O)cc1C(C)(C)C (centres unmarked) [Compound E1] , please. 0

Same lookup for CC1=C(Cl)C(OC(=O)Oc2ccccc2)N(c2cc(C(C)(C)C)n(C)n2)C1=O (centres unmarked) , please. 1

* * *

System: a variety of test species
protocol: Post-emergence herbicidal activity (glasshouse, sprayed 8 days after sowing, evaluated after 13 days)
Format: in vivo
applied.conditions: Zea mays, 1000 g/ha, scale 0-5
result.type: Post-emergence herbicidal damage score, ZEAMX (Zea mays)
// keep it numeric: no unit symbol after the value

// solved cases for Post-emergence herbicidal damage score, ZEAMX (Zea mays) follow
> print(dat)
                                   molecule  endpoint.result
1  CC1=C(Cl)C(O)N(c2cc(C#N)n(CC(F)(F)F)n2)C1=O (centres unmarked) [Compound C7]                0
2  CC1=C(Cl)C(O)N(c2cc([S+](C)[O-])n(C)n2)C1=O (centres unmarked) [Compound B26]                4
3  CC1=C(Br)C(O)N(c2nn(C)c(C(C)(C)C)c2C#N)C1=O (centres unmarked) [Compound H5]                0

Entry CC(C)=Cc1cc(N2C(=O)C(C)=C(Cl)C2O)nn1C (centres unmarked) [Compound B7] has what Post-emergence herbicidal damage score, ZEAMX (Zea mays)? 2

Same lookup for C/C=C\c1cc(N2C(=O)C(C)=C(Cl)C2O)nn1C (centres unmarked) [Compound B24] , please. 1

* * *

Tested on: a variety of test species
protocol: Post-emergence herbicidal activity (glasshouse, sprayed 8 days after sowing, evaluated after 13 days)
Format: in vivo
applied.conditions: Amaranthus retroflexus, 1000 g/ha, scale 0-5
result.type: Post-emergence herbicidal damage score, AMARE (Amaranthus retroflexus)
// keep it numeric: no unit symbol after the value

// solved cases for Post-emergence herbicidal damage score, AMARE (Amaranthus retroflexus) follow
> print(dat)
                                   molecule              target.entity  endpoint.result
1  CC1=C(Br)C(O)N(c2cc(C(C)(C)C)n(C)n2)C1=O (stereo not shown) [Compound H1]  a variety of test species                5
2  CC1=C(Cl)C(O)N(c2cc(C)n(C(F)F)n2)C1=O (stereo not shown) [Compound C6]  a variety of test species                2
3  CC1=C(Cl)C(O)N(c2cc(C)n(C(F)(F)F)n2)C1=O (stereo not shown) [Compound C9]  a variety of test species                1
4  CC1=C(Cl)C(O)N(c2cc(C(F)(F)F)n(C(C)C)n2)C1=O (stereo not shown) [Compound C4]  a variety of test species                1
5  CC1=C(Cl)C(O)N(c2cc(I)n(C)n2)C1=O (stereo not shown) [Compound B8]  a variety of test species                5
6  Cn1nc(N2C(=O)C(CCl)=C(Cl)C2O)cc1C(C)(C)C (stereo not shown) [Compound E1]  a variety of test species                1
7  CC1=C(Cl)C(O)N(c2cc3n(n2)CCSC3(C)C)C1=O (stereo not shown) [Compound G6]  a variety of test species                5
8  CC1=C(Cl)C(O)N(c2cc(C(C)(F)C(C)(C)C)n(C)n2)C1=O (mixture of isomers) [Compound B22]  a variety of test species                0

Provide the documented Post-emergence herbicidal damage score, AMARE (Amaranthus retroflexus) with a variety of test species as the system for CCC1=C(Br)C(O)N(c2nn(C)c(C(C)(C)C)c2C#N)C1=O (stereo not shown) [Compound H6] 2

* * *

System: a variety of test species
protocol: Post-emergence herbicidal activity (glasshouse, sprayed 8 days after sowing, evaluated after 13 days)
Assay type: in vivo
applied.conditions: Abutilon theophrasti, 1000 g/ha, scale 0-5
result.type: Post-emergence herbicidal damage score, ABUTH (Abutilon theophrasti)

// solved cases for Post-emergence herbicidal damage score, ABUTH (Abutilon theophrasti) follow
> print(dat)
                                   molecule              target.entity  endpoint.result
1  CC1=C(Cl)C(O)N(c2nn(CC(F)(F)F)c(C)c2C#N)C1=O (centres unmarked)  a variety of test species                0
2  CC1=C(Cl)C(O)N(c2cc3n(n2)CCC3C)C1=O (mixture of isomers)  a variety of test species                5
3  Cn1nc(N2C(=O)C(CCl)=C(Cl)C2O)cc1C(C)(C)C (centres unmarked) [Compound E1]  a variety of test species                4
4  CC1=C(Cl)C(O)N(c2cc(C(F)(F)F)n(C(C)C)n2)C1=O (centres unmarked)  a variety of test species                0
5  CC1=C(Br)C(O)N(c2cc(C(C)(C)C)[nH]n2)C1=O (centres unmarked)  a variety of test species                5
6  CCC1CCCn2nc(N3C(=O)C(C)=C(Cl)C3O)cc21 (mixture of isomers)  a variety of test species                5

Entry CC1=C(Cl)C(O)N(c2cc3n(n2)CCSC3(C)C)C1=O (centres unmarked) has what Post-emergence herbicidal damage score, ABUTH (Abutilon theophrasti)? 5

Same lookup for CC1=C(Cl)C(O)N(c2cc(C(C)(F)C(C)(C)C)n(C)n2)C1=O (mixture of isomers) , please. 1

* * *

Tested on: a variety of test species
protocol: Post-emergence herbicidal activity (glasshouse, sprayed 8 days after sowing, evaluated after 13 days)
Type: in vivo
applied.conditions: Abutilon theophrasti, 1000 g/ha, scale 0-5
Procedure: Seeds of a variety of test species were sown in standard soil in pots. […] After 13 days, the test was evaluated (5=total damage to plant; 0=no damage to plant).
Reported values of Post-emergence herbicidal damage score, ABUTH (Abutilon theophrasti) for individual entries
// keep it numeric: no unit symbol after the value

Entry CC1=C(Cl)C(OC(=O)OCC(C)C)N(c2cc(C(C)(C)C)n(C)n2)C1=O (stereo not shown) [Compound F1] has what Post-emergence herbicidal damage score, ABUTH (Abutilon theophrasti)? 5

Same lookup for CCC1CCn2nc(N3C(=O)C(C)=C(Cl)C3O)cc21 (mixture of isomers) [Compound G3] , please. 5

Same lookup for CC1=C(Cl)C(O)N(c2cc(C)[nH]n2)C1=O (stereo not shown) [Compound A5] , please. 5

Same lookup for CC1=C(Cl)C(O)N(c2nn(C)c3c2C2CCC3C2)C1=O (stereo not shown) [Compound B29] , please. 5

Same lookup for C=CCC(C)(C)c1cc(N2C(=O)C(C)=C(Cl)C2O)nn1C (stereo not shown) [Compound B6] , please. 5

Same lookup for CC1=C(Cl)C(O)N(c2cc(C(F)(F)F)n(C)n2)C1=O (stereo not shown) [Compound B3] , please. 5

Same lookup for CC1=C(Cl)C(O)N(c2cc(C(F)(F)C(F)(F)F)n(C)n2)C1=O (stereo not shown) [Compound B4] , please. 5

Same lookup for CC1=C(Cl)C(O)N(c2cc(C#N)n(CC(F)(F)F)n2)C1=O (stereo not shown) [Compound C7] , please. 3

Same lookup for CC1=C(Br)C(O)N(c2cc3n(n2)CCSC3(C)C)C1=O (stereo not shown) [Compound H9] , please. 4

Same lookup for CC1=C(Cl)C(O)N(c2cc(C)n(C(F)F)n2)C1=O (stereo not shown) [Compound C6] , please. 1

* * *

Tested on: a variety of test species
protocol: Post-emergence herbicidal activity (glasshouse, sprayed 8 days after sowing, evaluated after 13 days)
Assay type: in vivo
applied.conditions: Amaranthus retroflexus, 1000 g/ha, scale 0-5
result.type: Post-emergence herbicidal damage score, AMARE (Amaranthus retroflexus)
// keep it numeric: no unit symbol after the value

> print(dat)
                                   compound              target.entity  endpoint.result
1  CC1=C(Cl)C(O)N(c2cc(C(F)(F)F)n(C)n2)C1=O (stereo not drawn)  a variety of test species                5
2  CC1=C(Cl)C(O)N(c2cc(C(F)(F)C(F)(F)F)n(C)n2)C1=O (stereo not drawn)  a variety of test species                5
3  C=C(C)c1cc(N2C(=O)C(C)=C(Cl)C2O)nn1C (stereo not drawn)  a variety of test species                5
4  CC1=C(Cl)C(O)N(c2cc(C(C)(C)C#N)n(C)n2)C1=O (stereo not drawn)  a variety of test species                5

Next compound, please.
Entry CC(C)=Cc1cc(N2C(=O)C(C)=C(Cl)C2O)nn1C (stereo not drawn) has what Post-emergence herbicidal damage score, AMARE (Amaranthus retroflexus)? 3
